The entries below come with measured Ki values attached.
Molecular target: UniProtKB Q12809
Assay: Kv11.1 (hERG) ion channel activity (patch clamp assay), HEK293 cells transfected with hERG gene
Conditions: Ki [Kv1.11 hERG], hERG patch clamp assay (cells without asterisk)

- compound: "Cn1c(C(O)c2cc(-c3ncnc4cc(N5CCOCC5)ccc34)ccc2Cl)cccc1=O (stereo not drawn) [Example 400]"
  Ki: "15 to 25 µM"
- compound: "OC(c1ccc(F)c(-c2ncnc3cc(N4CCOCC4)ccc23)c1)c1nccnc1OC(F)F (stereo not drawn) [Example 464]"
  Ki: "15 to 25 µM"
- compound: "COc1nccnc1C(O)c1cc(-c2ncnc3cc(N4CCOCC4)ccc23)c(F)cc1Cl (stereo not drawn) [Example 468]"
  Ki: "15 to 25 µM"
- compound: "Cc1cncnc1C(O)c1cc(-c2ncnc3cc(N4CCOCC4)ccc23)ccc1Cl (stereo not drawn) [Example 417]"
  Ki: "15 to 25 µM"
- compound: "[2H]c1c(N2CCOCC2)cc2ncnc(-c3cc(C(O)c4ccc(OC)nn4)c(Cl)cc3F)c2c1[2H] (stereo not drawn) [Example 225]"
  Ki: "> 25 µM"

Query: Quick one: Ki for COc1nccnc1[C@@H](O)c1cc(-c2ncnc3cc(N4CCOCC4)ccc23)ccc1Cl [Example 411] ?
Result: 10 to 15 µM

Query: Please answer likewise for OC(c1cc(-c2ncnc3cc(N4CCOCC4)ccc23)ccc1Cl)c1ncnc2occc12 (stereo not drawn) [Example 416]
Result: 10 to 15 µM

Query: Also Cn1cnc2c(C(O)c3cc(-c4ncnc5cc(N6CCOCC6)ccc45)c(F)cc3F)ncnc21 (stereo not drawn) [Example 346] , if possible.
Result: 15 to 25 µM

Query: Query Cc1nccnc1C(C(N)=O)c1cc(-c2ncnc3cc(N4CCOCC4)ccc23)ccc1Cl (stereo not drawn) [Example 303] next
Result: 15 to 25 µM

* * *

Target: Kv11.1 (hERG) (Homo sapiens (Human))
Sequence (Q12809 whole entry): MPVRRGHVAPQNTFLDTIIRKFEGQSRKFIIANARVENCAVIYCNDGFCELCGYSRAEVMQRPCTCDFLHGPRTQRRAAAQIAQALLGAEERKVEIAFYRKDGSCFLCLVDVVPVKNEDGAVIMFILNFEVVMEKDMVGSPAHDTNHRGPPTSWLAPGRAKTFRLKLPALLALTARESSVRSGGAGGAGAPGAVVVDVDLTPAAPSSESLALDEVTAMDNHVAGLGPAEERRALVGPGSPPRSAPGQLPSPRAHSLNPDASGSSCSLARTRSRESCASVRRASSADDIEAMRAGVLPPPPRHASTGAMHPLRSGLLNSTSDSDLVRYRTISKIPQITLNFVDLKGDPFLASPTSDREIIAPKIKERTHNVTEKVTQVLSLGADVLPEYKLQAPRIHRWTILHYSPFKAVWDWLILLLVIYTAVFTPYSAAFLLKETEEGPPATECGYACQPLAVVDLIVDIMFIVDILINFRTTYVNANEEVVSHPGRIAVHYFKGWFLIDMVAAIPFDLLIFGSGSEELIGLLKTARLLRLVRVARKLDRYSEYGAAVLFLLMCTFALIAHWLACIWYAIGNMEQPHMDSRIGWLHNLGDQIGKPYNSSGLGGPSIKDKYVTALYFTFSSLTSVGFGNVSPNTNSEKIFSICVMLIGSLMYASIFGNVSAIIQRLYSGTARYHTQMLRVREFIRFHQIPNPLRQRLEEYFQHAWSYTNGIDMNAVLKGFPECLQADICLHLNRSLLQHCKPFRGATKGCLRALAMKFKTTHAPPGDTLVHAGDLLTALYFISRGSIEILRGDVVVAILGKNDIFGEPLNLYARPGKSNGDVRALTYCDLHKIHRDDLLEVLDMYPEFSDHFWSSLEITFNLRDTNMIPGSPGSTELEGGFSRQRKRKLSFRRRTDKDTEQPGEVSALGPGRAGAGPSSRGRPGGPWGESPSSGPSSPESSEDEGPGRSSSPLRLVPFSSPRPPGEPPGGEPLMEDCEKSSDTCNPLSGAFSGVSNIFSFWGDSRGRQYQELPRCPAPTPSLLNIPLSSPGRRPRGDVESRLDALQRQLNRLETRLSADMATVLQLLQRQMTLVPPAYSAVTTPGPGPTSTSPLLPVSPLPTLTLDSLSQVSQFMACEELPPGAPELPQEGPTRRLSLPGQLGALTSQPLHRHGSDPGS
Assay: Kv11.1 (hERG) ion channel activity (patch clamp assay), HEK293 cells transfected with hERG gene
Conditions: read-out: Ki [Kv1.11 hERG]; Table 5
property_label: Ki

Query: Dear colleague, I am looking for the recorded Ki of the following molecule: Cc1nc(C(O)c2cnc(F)c(-c3ncnc4cc(N5CCOCC5)ncc34)c2)sc1C (centres unmarked) [Example 196]
Result: > 25 µM

Query: Moving on to OC(c1cnc(F)c(-c2ncnc3cc(N4CCOCC4)ccc23)c1)c1nccs1 (centres unmarked) [Example 180]
Result: < 10 µM

Query: Then what about the molecule OC(c1cnc(F)c(-c2ncnc3cc(N4CCOCC4)ccc23)c1)c1nccs1 (centres unmarked) [Example 188] ?
Result: > 25 µM

Query: Can you handle CC(C)(C)n1cc(C(O)c2cc(-c3ncnc4cc(N5CCOCC5)ccc34)cnc2F)cn1 (centres unmarked) [Example 198] next?
Result: > 25 µM

Query: Next: CC(C)n1cc(C(O)c2ccc(F)c(-c3ncnc4cc(N5CCOCC5)ccc34)c2)cn1 (centres unmarked) [Example 197]
Result: < 10 µM

Query: Okay, and Cc1nc(C(O)c2cnc(F)c(-c3ncnc4cc(N5CCOCC5)ncc34)c2)sc1C (centres unmarked) [Example 203] ?
Result: > 25 µM

Query: Try this molecule too: OC(c1cccc(-c2ncnc3cc(N4CCOCC4)ccc23)c1)c1nccs1 (centres unmarked) [Example 150]
Result: > 25 µM

Query: Again, but for OC(c1ccc(F)c(-c2ncnc3cc(C4=CCOCC4)ccc23)c1)c1nccs1 (centres unmarked) [Example 139]
Result: > 25 µM

Query: And then OC(c1cc(F)c(F)c(-c2ncnc3cc(N4CCOCC4)ccc23)c1)c1nccs1 (centres unmarked) [Example 178] , what is it?
Result: > 25 µM

Query: OCc1csc([C@@H](O)c2cc(-c3ncnc4cc(N5CCOCC5)ccc34)c(F)cc2Cl)n1 [Example 185] ?
Result: > 25 µM

Query: Record: OC(c1cccc(-c2ncnc3cc(N4CCOCC4)ccc23)c1)c1nccs1 (centres unmarked) [Example 149]
Result: > 25 µM

Query: Param item: CC(O)(c1cncc(-c2ncnc3cc(N4CCOCC4)ccc23)c1)c1nccs1 (centres unmarked) [Example 152]
Result: > 25 µM

Query: Check COC(c1ccc(F)c(-c2ncnc3cc(N4CCOCC4)ccc23)c1)c1nccs1 (centres unmarked) [Example 177] too.
Result: > 25 µM

Query: Please give the result for OCc1csc(C(O)c2cc(-c3ncnc4cc(N5CCOCC5)ccc34)c(F)cc2Cl)n1 (centres unmarked) [Example 142] too.
Result: < 10 µM

Query: # repeat for OC(c1cc(F)c(F)c(-c2ncnc3cc(N4CCOCC4)ccc23)c1)c1nccs1 (centres unmarked) [Example 171]
Result: < 10 µM

Query: Check Cc1nc(C(O)c2ccc(F)c(-c3ncnc4cc(N5CCOCC5)ccc34)c2)sc1CO (centres unmarked) [Example 200] too.
Result: > 25 µM

Query: Thanks! And OC(c1ccc(F)c(-c2ncnc3cc(N4CCOCC4)sc23)c1)c1nccs1 (centres unmarked) [Example 145] ?
Result: > 25 µM
